Biological target: T1, mouse CD47-Fc (mouse, UniProt Q61735 19-140, limits assumed)
T1 construct: Recombinant CD47-Fc; also called mCD47-Fc; mCD37-Fc [sic]; not shown: Fc part
T1 sequence (looked up): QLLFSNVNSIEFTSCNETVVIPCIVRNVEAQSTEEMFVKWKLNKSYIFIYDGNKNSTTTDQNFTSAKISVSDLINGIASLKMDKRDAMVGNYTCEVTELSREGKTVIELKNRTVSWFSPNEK
Test: direct titration ELISA, FIG. 11C
Procedure: FIG. 11A-FIG. 11C. Direct titration ELISA for A-D5.4-derived designer IgGs binding to human, mouse and cyno CD47-Fc proteins. […] To coat Greiner Bio-One High bind ELISA plates, target proteins were diluted to 1 μg/ml in carbonate buffer and added at 100 μl per well, at 4° C., o/n. […] Reactions were stopped by adding 100 μl 2M H₂SO₄/well and OD was read on a plate reader at 450 nm.
MEASURED_ENDPOINT: binding result

If you can, please state the reported binding result value of A-D5.18 in human IgG1null format (antibody, V domains shown, Designer clone from A-D5.4; IgG1null) VH: EVQLVQSGAEVKKPGESLKISCKGSGYSFTNYYIFWVRQMPGKGLEWMGIINPVDGDTRYSPSFQGQVTISADKSISTAYLQWSSLKASDTAMYYCARGGYTMDRWGQGTLVTVSS VL: DIVMTQSPLSLPVTPGEPASISCRSSQSLLHSNAYNYLHWYLQKPGQSPQLLIYKVSNRLSGVPDRFSGSGSGTDFTLKISRVEAEDVGVYYCFQNTHTPRTFGQGTKVEIK .
binds

For A-D5.12 in human IgG1null format (antibody, V domains shown, Designer clone from A-D5.4; IgG1null) VH: EVQLVQSGAEVKKPGESLKISCKGSGYSFTNYYIFWVRQMPGKGLEWMGIINPVDGDTRYNPSFQGQVTISADKSISTAYLQWSSLKASDTAMYYCARGGYTMDRWGQGTLVTVSS VL: DIVMTQSPLSLPVTPGEPASISCRSSQSLLHSNGYNYLHWYLQKPGQSPQLLIYKVSNRLSGVPDRFSGSGSGTDFTLKISRVEAEDVGVYYCFQNTHTPRTFGQGTKVEIK then?
binds

For A-D5.11 in human IgG1null format (antibody, V domains shown, Designer clone from A-D5.4; IgG1null) VH: EVQLVQSGAEVKKPGESLKISCKGSGYSFTNYYIFWVRQMPGKGLEWMGIINPVDGDTNYNPSFQGQVTISADKSISTAYLQWSSLKASDTAMYYCARGGYTMDRWGQGTLVTVSS VL: DIVMTQSPLSLPVTPGEPASISCRSSQSLLHSNGYNYLHWYLQKPGQSPQLLIYKVSNRLSGVPDRFSGSGSGTDFTLKISRVEAEDVGVYYCFQNTHTPRTFGQGTKVEIK then?
binds
